Values were extracted from the RNAGym collection of RNA variant scans (doi:10.7554/elife.90254).

B1: LINE1-full (parent)
chain: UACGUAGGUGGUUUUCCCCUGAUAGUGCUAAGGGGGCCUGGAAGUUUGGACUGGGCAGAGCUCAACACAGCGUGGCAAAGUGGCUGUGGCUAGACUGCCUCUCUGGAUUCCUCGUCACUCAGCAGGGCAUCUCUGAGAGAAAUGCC

- Variants of: B1
- experiment: self-cleavage, relative activity (ratio to wild type); higher = more cleavage; in vitro, sequencing; the parent is a self-cleaving ribozyme
I'd be grateful if you could share measured self-cleavage for these entries.
Returns: the value as a bare number; no unit string appended.

(Q) So what does the record say about self-cleavage for A69G U143C ?
(A) 0.5

(Q) So what does the record say about self-cleavage for A24C U134G ?
(A) 1.02

(Q) So what does the record say about self-cleavage for U46G U73C ?
(A) 1.02

(Q) So what does the record say about self-cleavage for A59U C103U ?
(A) 0.5

(Q) So what does the record say about self-cleavage for U100C U130G ?
(A) 1.02
